# Test system: NCI-H322M lung
# Assay comment: NCI-60 one-dose screen, 48 h (100 = growth as untreated, 0 = no growth, -100 = all killed)
# Condition description: 10 µM unless noted
About 83,000 compounds went through this panel and 20% of them were active in at least one assay; those are over-represented in the sample as a whole.
Kindly supply the reported growth values for the records listed here.
Answers are plain numbers, in %.

State recorded growth for all listed compounds.
1. O=C(/C=C/c1cn(-c2ccccc2)nc1-c1ccccc1)CCC(=O)NO
2. C=C[C@@]1(C)CC(=O)[C@@H](C(C)(C)c2cn(C)c3ccc(Br)cc23)C[C@@H]1O[Si](C)(C)C(C)(C)C
3. CN1C(=O)N2CN3CCCN(C3)CN3C(=S)NC1C23 (centres undefined)
4. CC1(C)N=C(N)N=C(N)N1c1ccc(S(=O)(=O)Nc2nccs2)cc1
5. COc1ccc(N=C2NN=C(c3c[nH]c4ccccc34)CS2)cc1OC
6. CCOC(=O)C1=C(c2ccccc2)N=C2N(c3ccccc3)N=C(C(C)=O)N2C1c1ccc(F)cc1 (centres undefined)

1: 106; 2: 101; 3: 105; 4: 104; 5: 70; 6: 99.2

Consider the following items and state reported growth for each.
1. O=C1/C(=C/c2c[nH]c(=O)[nH]c2=O)SC(=S)N1Cc1ccccc1
2. CS(=O)(=O)c1ccc(-c2nc3ccccc3n2CC(=O)N/N=C/c2ccccc2)cc1
3. CC1(C)CC[C@]23CC[C@]4(C)[C@H](CC[C@@H]5[C@@]6(C)CCNCC(C)(C)[C@@H]6CC[C@]54C)[C@H]2[C@H]1OC3

[95.1, 95.5, 99.8]

---

# System: ACHN renal
# Assay comment: NCI-60 one-dose screen, 48 h (100 = growth as untreated, 0 = no growth, -100 = all killed)
# Condition description: 10 µM unless noted
# Procedure: Growth inhibition of the ACHN human tumor cell line is measured as a screen for anti-cancer activity. Cells are grown in 96 well plates and exposed to the test compound for 48 hours. Compounds are tested at a single concentration, which is 10^-5 M for most compounds. The reported endpoint is percent growth (GI% or GIPRCNT), where numbers from 0 - 100% represent growth inhibition, and numbers from -100% - 0 represent cell death. For example, a value of 40 represents 60% growth inhibition. […]
Compounds without any hit were thinned out: in the full panel of roughly 83,000, 20% have a hit.
Assay readout: growth (%)
Answers are plain numbers, in %.

Guide cases for growth, answers given:
# Compound, growth / %
data = [
    ("C[C@H](c1nc2ccc(C#N)cc2[nH]1)[C@H]1CC[C@H]2[C@@H]3CCC4=CC(=O)CC[C@]4(C)[C@H]3CC[C@]12C", 80.4),
    ("CC[C@@H](C(=O)[C@@H](C)[C@@H](O)[C@H](C)[C@@H]1O[C@@H]([C@@H](CC)C(=O)ONC(=O)c2ccccc2O)CC[C@@H]1C)C1O[C@]2(C=CC(=O)[C@]3(CC[C@@](C)([C@H]4CC[C@](O)(CC)[C@H](C)O4)O3)O2)[C@H](C)C[C@@H]1C (stereo partly drawn)", 50.2),
]

Could you now look at the following compound, please?
Note to self: growth recorded for CCN(CC)CCCC(Cc1ccccc1)Nc1c2ccc(Cl)cc2nc2ccc(OC)cc12 (stereo not drawn) was -39.2

---

# System: EKVX NSCLC
# Assay comment: NCI-60 one-dose screen, 48 h (100 = growth as untreated, 0 = no growth, -100 = all killed)
# Condition description: 10 µM unless noted
Compounds without any hit were thinned out: in the full panel of roughly 83,000, 20% have a hit. Calls of active or inactive are those of the source. Rule for the calls: active = growth percent below 10; inactive = the rest.
Assay readout: growth

# Molecule, growth
data = [
    ("O=C(c1cccc(N2CCOCC2)n1)c1c[nH]c2ccccc12", "76.3% (inactive)"),
    ("O=C(/C=C/c1ccco1)Nc1ncc(Cc2cc(Cl)ccc2Cl)s1", "34.2% (inactive)"),
    ("Cc1cc(Cl)nc(N2CCN(CCNc3ccnc4cc(Cl)ccc34)CC2)n1", "44.8% (inactive)"),
    ("O=C(O)CCCCCCCCCCN1C(=O)/C(=C2/C(=O)N(CC(=O)O)c3ccc(Br)cc32)SC1=S", "97.2% (inactive)"),
    ("CCCC(O)Cn1ncc(C(=O)OCC)c1NC(=O)NCc1cccc(C(F)(F)F)c1 (stereo not given)", "90.5% (inactive)"),
    ("CCn1cc(C(=O)O)c(=O)c2cc(F)c(N3CCN(CC(=O)Nc4ccccc4)C(C)C3)c(F)c21 (stereo not given)", "104% (inactive)"),
    ("CCCCn1c(NC(C)=O)c(S(=O)(=O)c2ccccc2)c2nc3ccccc3nc21", "95.5% (inactive)"),
    ("C[N+]1=C(/C=C/c2ccccc2Cl)C(C)(C)c2ccccc21", "96.9% (inactive)"),
]

Hi! Can you tell me growth for each of these molecules?
1. CCN(CC)CCOc1ccc(/C(=C(\C)Cc2ccc(OC)cc2)c2ccc(OC(=O)NCc3ccccc3)cc2)cc1
2. O=C(C[C@]1(O)C(=O)Nc2ccc(Br)cc21)c1ccco1

["73% (inactive)", "107% (inactive)"]

---

# System: SNB-19 CNS
# Assay comment: NCI-60 one-dose screen, 48 h (100 = growth as untreated, 0 = no growth, -100 = all killed)
# Condition description: 10 µM unless noted
Compounds without any hit were thinned out: in the full panel of roughly 83,000, 20% have a hit.
Assay readout: growth (%)
Answers are plain numbers, in %.

# Molecule, Assay readout, Number
data = [
    ("O=[N+]([O-])c1ccccc1Sc1ccccc1[N+](=O)[O-]", "growth", 106),
    ("Nc1nc2ccccc2c2c(=O)c3cc(Cl)ccc3sc12", "growth", 96.1),
    ("C[C@H](c1nc2ccc(C#N)cc2[nH]1)[C@H]1CC[C@H]2[C@@H]3CCC4=CC(=O)CC[C@]4(C)[C@H]3CC[C@]12C", "growth", 71.6),
    ("COC12C=C/C(=C(/C(=O)OCc3cncnc3)C(=O)CCCCCCCCC3(OC)C=C/C(=C(/C(=O)OCc4cncnc4)C(=O)CCCCCCCC1)O3)O2", "growth", 10.9),
]

Please give growth, item by item, for the list that follows.
1. C=CC(CC(c1ccccc1)(c1ccccc1)c1ccccc1)N(CC)CC (centres undefined)
2. O=C(N/N=C/c1ccc(Cl)cc1)c1ccc(NC(=O)c2ccccn2)cc1
3. c1cc(OCCN2CCCCC2)ccc1CNc1ccc2nc(CCC3CCCCC3)[nH]c2c1

98.3
64.9
62

Below are some molecules; for each one, tell me its growth.
1. CCOC(=O)c1ccc[nH]1
2. CC1(C)CC(=O)C2=C(C1)C(c1ccc(Cl)cc1)n1ncc(C#N)c1N2 (centres undefined)
3. O=c1cc(CNc2cc(F)cc(F)c2)c2ccc(I)cc2[nH]1
4. O=C1C(Cl)=C(Nc2ccccc2)C(=O)c2ccccc21
5. CC[C@@H](C(=O)[C@@H](C)[C@@H](O)[C@H](C)[C@@H]1O[C@@H]([C@@H](CC)C(=O)ONC(=O)c2ccccc2O)CC[C@@H]1C)C1O[C@]2(C=CC(=O)[C@]3(CC[C@@](C)([C@H]4CC[C@](O)(CC)[C@H](C)O4)O3)O2)[C@H](C)C[C@@H]1C (some centres undefined)
6. Cc1c2ccccc2nc2cc3c(cc12)[C@H]1CC[C@]2(C)C(=O)CC[C@H]2[C@@H]1CC3
7. O=C1/C(=C/c2ccccn2)SC(=S)N1N1CCOCC1

1. 99.4
2. 96.5
3. 49.8
4. 54.2
5. 48.4
6. 84.9
7. 101

Quick one: give me growth for each item below, same order please.
1. COc1c2c(cc3c1C(=O)N[C@@H]1[C@@H](O)[C@@H](O)[C@H](O)C[C@@H]31)OCCO2
2. Nc1c(Br)cc2c(c1Br)Cc1cc([N+](=O)[O-])ccc1-2

102
94.5

---

# Tested on: NCI-H23 lung
# Assay comment: NCI-60 one-dose screen, 48 h
# Condition description: 10 µM unless noted
This is part of a sample that, as a whole, favours compounds with a hit. Of some 83,000 tested, about 20% had one in any assay. Activity calls are given as the source filed them. The calls were made as follows: active = growth percent below 10; inactive = the rest.
# output must be one of 1 for active, -1 for inactive

# Compound, Label
records = [
    ("COc1cc(C[C@H]2COc3cc(O)cc(O)c3C2=O)ccc1O", -1),
    ("CCOC(=O)c1c(C)nc2c(c1N)C(=O)C(=O)N2Cc1ccc(OC)cc1", -1),
]

Called result for COc1ccc(C2[C@@H](c3ccccc3)C(=O)N2c2cc(OC)c(OC)c(OC)c2)cc1F (some centres not stated)
-1

Give the logged outcome of this assay for the following compound: CC(C)(C)c1ccc(S(=O)(=O)Oc2ccc(-c3sc4cc(OS(=O)(=O)c5ccc(C(C)(C)C)cc5)ccc4c3C(=O)c3ccc(OCCN4CCCCC4)cc3)cc2)cc1
-1

Recorded call for COc1ccc(-c2cc(-c3cn(-c4cccc(Cl)c4)nc3-c3ccc(OC)cc3)on2)cc1 ?
-1

How was CN(C)CCCC1(c2ccc(F)cc2)OCc2cc(-c3csc4ccccc34)ccc21 (configuration not stated) classified in this test?
-1

Write down the call the test reported for this compound. Item: CCOC(=O)c1cn2ncnc(Oc3ccc(NC(=O)NC4CC4)c(Cl)c3)c2c1C
-1

Assay outcome for O=C(OCc1ccc2c(Cl)cc(Cl)c(O)c2n1)N1CCN(C(=O)c2cc3ccccc3[nH]2)CC1 : what was it?
-1
